Experiment: Permeability through Caco-2 cell monolayer
Format: in vitro ADME
Conditions: human, Caco-2; efflux = Papp B-A / Papp A-B
measure: efflux ratio at 2 h, 10 µM
// return just the number, without any unit appended

// known answers, use as guide
1) COCCNC(=O)c1ccc2nccc(-c3ccc(-c4cnn(C)c4)cc3)c2c1 [CDK8-6-14]
0.44
2) COc1ccc(-c2cnc3[nH]cc(C(=O)c4ccncc4)c3c2)cc1 [CDK8-4-33]
1.5
3) O=C(c1ccc2ncn(-c3ccc(-c4cn[nH]c4)cc3)c2c1)N1CCCCC1 [CDK8-1-3]
0.44
4) COCCNC(=O)c1cnc2cncc(-c3ccc(-c4cnn(C)c4)cc3)c2c1 [CDK8-3-18]
0.9
5) O=C(c1ccncc1)c1c[nH]c2ncc(-c3ccc(N4CCOCC4)c(O)c3)cc12 [CDK8-4-11]
1.54

Please turn your attention to the following entry.
Task: Fill in: efflux ratio at 2 h, 10 µM of COc1cc(-c2cnc3[nH]cc(C(=O)c4ccncc4)c3c2)ccc1N1CCOCC1 [CDK8-4-31] is ___
Output: 0.35
